- Measurement Notes: ATG_GLI_CIS: Attagene CIS-FACTORIAL HepG2 Assay for human Zinc Finger Protein GLI1 (AID 2282945)
- Experimental Parameters: HepG2, Attagene cis-factorial reporter mRNA, GLI element; actives raise or lower the signal
Calls of active or inactive are those of the source. How the source made its calls: active means hit-call score of the fitted dose curve at least 0.9, where 1 is the maximum; inactive means score below 0.9.
Form entry, call: pick from 1.0 (active), 0.0 (inactive)

Look over these answered cases.
CCN(CC)C(=O)C(Cl)=C(C)OP(=O)(OC)OC    0.0
CCOC(=O)OC1=C(c2cc(C)ccc2C)C(=O)NC12CCC(OC)CC2 (stereo unspecified)    0.0
CCOP(=S)(OCC)OP(=S)(OCC)OCC    0.0
N#Cc1ccc(Cl)cc1    0.0
Nc1ccc(-c2ccccc2)cc1    0.0
[F][Sn]([c]1ccccc1)([c]1ccccc1)[c]1ccccc1    1.0

// return assay outcome for CN(N=O)c1ccc([N+](=O)[O-])cc1
0.0

Look up the recorded call for C=CC(Cl)CCl (stereo unspecified) in this test.
0.0

What classification did O=C1c2ccccc2C(=O)C1C(=O)C(c1ccccc1)c1ccc(Cl)cc1 (stereo unspecified) end up with in this test?
1.0

Answer briefly: the call reported for O=S(=O)(C(Cl)(Cl)Cl)C(Cl)(Cl)Cl in this assay.
1.0

---

- Read-out: CD40, CD40 (gene 958)
- Measurement Notes: BSK_SAg_CD40: BioMAP Diversity Plus: SAg Assay for CD40 Biomarker Activity (AID 2283088)
- Experimental Parameters: primary human HUVEC with PBMC; actives raise or lower the signal
Calls of active or inactive are those of the source. The calls were made as follows: active = hit-call score of the fitted dose curve at least 0.9, where 1 is the maximum; inactive = score below 0.9.
Classes to choose from: label 1 = active, label 0 = inactive

Past entries and their recorded results:
N#Cc1cccnc1    label 0
N#CCCC(Br)(C#N)CBr (stereo not given)    label 1
Cc1cc(Cl)ccc1N    label 0
C[C@]12CC[C@@H](O)C[C@@H]1CC[C@@H]1[C@@H]2CC[C@]2(C)C(=O)CC[C@@H]12    label 0

What classification did O=C(O)C1(c2ccc3c(c2)OC[C@H](Cc2ccc(-c4ccccc4)cc2)[C@H]3O)CCCC1 end up with in this test?
label 1

Record lookup: outcome of this test for CCOC(=O)C(SP(=S)(OC)OC)c1ccccc1 (stereo not given) ?
label 0

---

- Read-out: Matrix Metallopeptidase 1 (MMP1), MMP1 (gene 4312)
- Measurement Notes: BSK_hDFCGF_MMP1: BioMAP Diversity Plus: hDFCGF Assay for Matrix Metallopeptidase 1 (MMP1) Biomarker Activity (AID 2283064)
- Experimental Parameters: primary human foreskin fibroblasts; actives raise or lower the signal
Calls of active or inactive are those of the source. The calls were made as follows: active = hit-call score of the fitted dose curve at least 0.9, where 1 is the maximum; inactive = score below 0.9.
Just give me one of these, please: active, inactive

Previously resolved entries follow.
CC(C)O.CC(C)O.OCCN(CCO)CCO.OCCN(CCO)CCO.[Ti]    active
CCCCCCCCCCCCN(C)C    inactive
CCOP(=S)(OCC)SCS(=O)(=O)C(C)(C)C    inactive
[Cl][Sn]([c]1ccccc1)([c]1ccccc1)[c]1ccccc1    active
Nc1c(Oc2ccccc2)cc(O)c2c1C(=O)c1ccccc1C2=O    inactive

Please turn your attention to the following entry.
What is the recorded call for this molecule in the test? O=C1C=CC(=O)c2ccccc21
active

---

- Measurement Notes: TOX21_p53_BLA_p5_viability: Viability Assessment in the Tox21 HCT-116 p53 Agonism Beta-lactamase Assay, Phase 5 (AID 2283600)
Records with an inconclusive call do not appear. The source made the active and inactive calls. The calls were made as follows: active = hit-call score of the fitted dose curve at least 0.9, where 1 is the maximum; inconclusive = response in the unintended direction; inactive = score below 0.9.
Could you please pick one outcome from this set? active, inactive

Before answering, review these 3 worked examples.
CCOP(=S)(OCC)Oc1ccc(Cl)cc1Cl    inactive
Nc1cccnc1    inactive
O=C=Nc1ccc(Cl)cc1    inactive

Now examine the next entry.
State the result this test recorded for Clc1ccc(C(Cl)(Cl)Cl)cn1 .
inactive

---

- Measurement Notes: BSK_3C_VCAM1: BioMAP Diversity Plus: 3C Assay for Vascular cell adhesion molecule 1 (VCAM1) Biomarker Activity (AID 2282999)
- Experimental Parameters: BioMAP 3C HUVEC, VCAM1 ELISA, cytokine-stimulated; actives raise or lower the signal
Calls of active or inactive are those of the source. Rule for the calls: active = hit-call score of the fitted dose curve at least 0.9, where 1 is the maximum; inactive = score below 0.9.
Valid outcomes are listed here; reply with one: active, inactive

Cc1cc(C(C)(C)c2ccc(O)c(C)c2)ccc1O    active
CCOP(=O)(OCC)OC(=CCl)c1ccc(Cl)cc1Cl    inactive
N#Cc1cccnc1    inactive

Which outcome was entered for the compound CCOP(=S)(OCC)OP(=S)(OCC)OCC in this test?
active

Dear all, I need the recorded test outcome for CC(C)N(C(=O)CCl)c1ccccc1 , thank you.
active

Any idea what this test logged for CC1(C)[C@H](C(=O)O[C@H](C#N)c2cccc(Oc3ccccc3)c2)[C@@H]1/C=C(\Cl)C(F)(F)F ?
inactive

Hi team, can someone confirm the assay call for Nc1c(Oc2ccccc2)cc(O)c2c1C(=O)c1ccccc1C2=O ?
inactive

Recorded call for O=[N+]([O-])c1ccc(Nc2ccccc2)cc1 ?
inactive

How was O=C1C=CC(=O)c2ccccc21 classified in this test?
active

---

- Measurement Notes: ATG_DR4_LXR_CIS: Attagene CIS-FACTORIAL HepG2 Assay for human Liver X Receptor (LXR), DR4 submotif (AID 2282929)
- Experimental Parameters: HepG2 Attagene DR4 cis-reporter, mRNA transcription; actives raise or lower the signal
Activity calls are given as the source filed them. Rule for the calls: active = hit-call score of the fitted dose curve at least 0.9, where 1 is the maximum; inactive = score below 0.9.
Pick one and only one: TRUE = active, FALSE = inactive

CC(C)(C)c1ccc(CCOc2ncnc3ccccc23)cc1    FALSE
O=[N+]([O-])c1cccc2ccccc12    FALSE
C=CCN=C=S    FALSE
CC(C)(C#N)N=NC(C)(C)C#N    FALSE

How was CC1(C)[C@H](C(=O)O[C@H](C#N)c2cccc(Oc3ccccc3)c2)[C@@H]1/C=C(\Cl)C(F)(F)F classified in this test?
FALSE

What outcome does the record of this test show for CC(C)[N+](=O)[O-] ?
FALSE

Look up the recorded call for FC(F)OCC(F)(F)C(F)(F)F in this test.
FALSE

Look up the recorded call for CC(C)(c1ccccc1)c1cc(-n2nc3ccccc3n2)c(O)c(C(C)(C)c2ccccc2)c1 in this test.
FALSE

Which outcome was entered for the compound NC(=O)c1ccc(N)nc1 in this test?
FALSE

GET /call?item= Clc1cccc(Cl)c1Cl returns the recorded outcome of this test.
FALSE

Hey, what did the test say about O=C/C(Cl)=C(/Cl)C(=O)O ?
TRUE

Tell me the assay call for CCCCS(=O)(=O)Cl please.
FALSE

Give the logged outcome of this assay for the following compound: CCOC(=O)OC1=C(c2cc(C)ccc2C)C(=O)NC12CCC(OC)CC2 (configuration not stated)
FALSE

# lookup: test call for O=c1[nH]c2ccccc2n1C1CCN(CCCC(c2ccc(F)cc2)c2ccc(F)cc2)CC1
TRUE

Check the results log: what was the call for Cl[C@H]1OCCO[C@@H]1Cl ?
FALSE

Record lookup: outcome of this test for CCOC(=O)Cc1ccccc1 ?
FALSE

Can you look up the reported call for CC(C)(c1ccc(O)c(-c2ccccc2)c1)c1ccc(O)c(-c2ccccc2)c1 for me?
TRUE

What outcome does the record of this test show for OCCN(CCO)CCO ?
FALSE

// outcome(item) with item = O=C(O)c1cc(I)cc(I)c1I
FALSE

# outcome recorded in this test, key = OCC(c1ccc(Cl)cc1)c1ccc(Cl)cc1
TRUE

---

- Measurement Notes: TOX21_p53_BLA_p2_viability: Viability Assessment in the Tox21 HCT-116 p53 Agonism Beta-lactamase Assay, Phase 2 (AID 2283591);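 further: compound exposure lasted 16 h at 37 °C; actives lower the ATP signal meaning cytotoxicity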
Inconclusive results are not listed. Active and inactive are the calls of the source. The calls were made as follows: active = hit-call score of the fitted dose curve at least 0.9, where 1 is the maximum; inconclusive = response in the unintended direction; inactive = score below 0.9.
Your reply should match one of these outcome classes. Y = active, N = inactive

How did this test come out for CCN(CCO)CCO ?
N

Write down the call the test reported for this molecule. Item: O=C(Cc1ccccc1)OCCc1ccccc1
N

I'd appreciate the recorded outcome for CCOc1ccc(N)cc1 from this test.
N

Outcome logged for OCCCCO in this assay:
N

Call for entry BrCc1ccc(Br)cc1 :
N

For N#CS , which call appears in the assay record?
N

Hi team, can someone confirm the assay call for Cc1c([N+](=O)[O-])c(C)c([N+](=O)[O-])c(C(C)(C)C)c1[N+](=O)[O-] ?
N

Just curious, what result did Cc1ccccc1OP(=O)(Oc1ccccc1C)Oc1ccccc1C get here?
N

Identify the outcome logged in this assay for the molecule shown: CC(C)[C@@H](Nc1ccc(C(F)(F)F)cc1Cl)C(=O)OC(C#N)c1cccc(Oc2ccccc2)c1 (stereo partly drawn)
N

# lookup: test call for CCC[CH2][Sn]([CH2]CCC)([CH2]CCC)[CH2]CCC
Y

How was CCCCCCCCCCCCCCC(Br)C(=O)O (stereo not drawn) classified in this test?
N

GET /call?item= Clc1cnc(Oc2ccc(Oc3ncc(Cl)cc3Cl)cc2)c(Cl)c1 returns the recorded outcome of this test.
N

// param item: COC(=O)Nc1cccc(OC(=O)Nc2cccc(C)c2)c1 ; yields the recorded call
N

How was Cc1cc(Cl)ccc1O classified in this test?
N

Per the records of this test, what outcome belongs to C=CCN=C=S ?
N

Given CCOC(=O)OC1=C(c2cc(C)ccc2C)C(=O)NC12CCC(OC)CC2 (stereo not drawn) , state the outcome it received in this test.
N

Which outcome was assigned to Cc1cc(-c2cc(C)c(N)c(C)c2)cc(C)c1N in this test?
N

Dear colleague, could you share the recorded outcome for O=[N+]([O-])c1ccccc1O when you have a moment?
N
